Reference source for all entries: ChEMBL document CHEMBL1201862

- Target system: Replicative DNA helicase DnaB (Mycobacterium tuberculosis, UniProt P9WMR3)
- Sequence (P9WMR3 whole entry): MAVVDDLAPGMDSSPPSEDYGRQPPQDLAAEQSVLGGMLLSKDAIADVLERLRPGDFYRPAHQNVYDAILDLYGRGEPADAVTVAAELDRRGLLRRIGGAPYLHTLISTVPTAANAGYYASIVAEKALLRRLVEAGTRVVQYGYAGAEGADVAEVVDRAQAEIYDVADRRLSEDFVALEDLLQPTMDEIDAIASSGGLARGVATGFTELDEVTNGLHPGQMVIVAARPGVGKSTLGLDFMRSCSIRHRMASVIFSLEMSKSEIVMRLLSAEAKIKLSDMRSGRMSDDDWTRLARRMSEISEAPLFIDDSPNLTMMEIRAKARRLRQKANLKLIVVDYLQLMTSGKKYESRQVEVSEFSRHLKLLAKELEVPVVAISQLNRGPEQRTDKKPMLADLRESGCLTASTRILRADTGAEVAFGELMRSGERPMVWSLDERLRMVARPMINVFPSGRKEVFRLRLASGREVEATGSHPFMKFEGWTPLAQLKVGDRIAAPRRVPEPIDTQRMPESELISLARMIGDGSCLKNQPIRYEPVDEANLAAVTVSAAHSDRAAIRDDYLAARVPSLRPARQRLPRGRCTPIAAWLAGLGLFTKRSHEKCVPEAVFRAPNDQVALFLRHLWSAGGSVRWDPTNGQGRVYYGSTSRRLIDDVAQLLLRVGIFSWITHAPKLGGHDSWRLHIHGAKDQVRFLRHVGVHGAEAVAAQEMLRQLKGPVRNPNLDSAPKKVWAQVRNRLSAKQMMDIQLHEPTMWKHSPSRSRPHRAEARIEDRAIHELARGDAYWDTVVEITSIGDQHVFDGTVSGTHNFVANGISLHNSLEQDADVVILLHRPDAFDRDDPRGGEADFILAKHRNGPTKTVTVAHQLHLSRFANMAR
- Assay protocol: DnaB intein splicing inhibitors, dose response, biochemical, cell-free fluorescence (AID 449749)
- Type: functional
Calls of active or inactive are those of the source. Cut-off read from the data, not from the text of the source: actives have a measured AC50 and inactives only a lower limit.

Molecule | AC50
Cc1cccc(/N=C2\C(Cl)=C(O)OC2OC(=O)c2ccco2)c1 (stereo not given) | 13.8 µM (active)
FC(F)(F)c1nnc(-c2ccccc2)nc1Oc1ccc(Cl)cc1Cl | 1.44 µM (active)
O=C(Oc1ccc(N(C(=O)c2ccncc2)S(=O)(=O)c2ccc(Cl)cc2)cc1)c1ccncc1 | 9.26 µM (active)
COc1ccc(N2C(=O)C(Cl)=C(Oc3cccc(OC)c3)C2=O)cc1 | 18.9 µM (active)
O=C(Nc1ccccc1)C1=C(c2ccccc2)S(=O)(=O)CCS1(=O)=O | 1.42 µM (active)
